As shown below, each of these molecules has a reported pIC50 value.
# target.desc: Sodium channel protein type 2 subunit alpha (Rattus norvegicus)
# Sequence (P04775 whole entry): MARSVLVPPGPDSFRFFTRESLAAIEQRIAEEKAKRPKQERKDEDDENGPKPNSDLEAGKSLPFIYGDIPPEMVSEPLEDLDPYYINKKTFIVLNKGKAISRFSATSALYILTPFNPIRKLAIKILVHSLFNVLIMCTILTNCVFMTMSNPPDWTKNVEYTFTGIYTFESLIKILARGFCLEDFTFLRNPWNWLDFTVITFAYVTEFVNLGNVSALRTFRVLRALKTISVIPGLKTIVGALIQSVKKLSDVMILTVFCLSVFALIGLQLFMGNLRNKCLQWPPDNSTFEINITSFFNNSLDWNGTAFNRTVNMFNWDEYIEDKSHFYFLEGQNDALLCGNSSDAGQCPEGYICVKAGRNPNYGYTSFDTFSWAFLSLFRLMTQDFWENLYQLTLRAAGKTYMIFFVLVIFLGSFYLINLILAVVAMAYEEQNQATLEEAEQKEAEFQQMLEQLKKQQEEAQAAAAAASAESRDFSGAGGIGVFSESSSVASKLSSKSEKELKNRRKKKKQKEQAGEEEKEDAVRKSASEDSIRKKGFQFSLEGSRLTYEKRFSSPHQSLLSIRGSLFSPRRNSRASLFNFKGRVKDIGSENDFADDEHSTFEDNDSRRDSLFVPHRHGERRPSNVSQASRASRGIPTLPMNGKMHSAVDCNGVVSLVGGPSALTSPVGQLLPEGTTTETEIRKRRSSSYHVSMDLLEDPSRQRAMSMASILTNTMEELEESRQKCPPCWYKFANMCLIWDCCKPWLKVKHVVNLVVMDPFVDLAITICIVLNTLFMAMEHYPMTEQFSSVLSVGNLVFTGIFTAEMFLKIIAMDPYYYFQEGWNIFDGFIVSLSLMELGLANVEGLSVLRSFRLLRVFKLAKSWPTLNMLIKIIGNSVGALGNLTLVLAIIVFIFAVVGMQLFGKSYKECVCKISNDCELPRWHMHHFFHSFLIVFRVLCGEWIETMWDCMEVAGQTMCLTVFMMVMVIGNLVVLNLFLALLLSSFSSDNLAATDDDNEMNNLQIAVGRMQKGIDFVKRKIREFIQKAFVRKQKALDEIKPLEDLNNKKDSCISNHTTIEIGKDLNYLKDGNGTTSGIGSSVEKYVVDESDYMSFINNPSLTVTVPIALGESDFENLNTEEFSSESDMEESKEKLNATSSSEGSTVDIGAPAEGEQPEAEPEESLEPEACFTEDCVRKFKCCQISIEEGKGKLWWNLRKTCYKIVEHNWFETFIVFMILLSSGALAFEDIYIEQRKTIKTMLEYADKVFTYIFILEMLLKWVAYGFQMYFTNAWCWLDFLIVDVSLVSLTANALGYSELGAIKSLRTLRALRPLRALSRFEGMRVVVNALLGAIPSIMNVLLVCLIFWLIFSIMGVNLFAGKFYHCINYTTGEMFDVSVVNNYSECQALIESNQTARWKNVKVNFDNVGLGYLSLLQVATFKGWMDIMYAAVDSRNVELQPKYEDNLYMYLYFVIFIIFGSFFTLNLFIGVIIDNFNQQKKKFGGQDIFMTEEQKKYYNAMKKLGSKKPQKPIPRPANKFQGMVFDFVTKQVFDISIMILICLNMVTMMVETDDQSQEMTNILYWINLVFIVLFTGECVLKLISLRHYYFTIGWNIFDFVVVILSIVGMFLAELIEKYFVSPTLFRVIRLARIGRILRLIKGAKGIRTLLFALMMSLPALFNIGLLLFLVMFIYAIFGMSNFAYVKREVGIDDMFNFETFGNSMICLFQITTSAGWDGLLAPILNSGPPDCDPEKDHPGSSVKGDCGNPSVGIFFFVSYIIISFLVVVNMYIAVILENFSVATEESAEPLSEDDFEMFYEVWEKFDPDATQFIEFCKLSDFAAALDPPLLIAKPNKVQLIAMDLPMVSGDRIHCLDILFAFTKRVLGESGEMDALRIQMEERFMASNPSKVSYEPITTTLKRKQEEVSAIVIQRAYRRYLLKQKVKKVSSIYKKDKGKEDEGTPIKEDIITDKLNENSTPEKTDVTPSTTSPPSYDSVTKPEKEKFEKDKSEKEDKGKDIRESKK
# assay: In vitro inhibition of [14C]- guanidinium influx in Chinese hamster ovary (CHO) cells expressing rat brain sodium channel type IIA (CNaIIA-1)
# Format: cell-based
pIC50: −log10 of the molar value.

Example cases with answers are listed next.
> print(dat)
                       molecule                               target.desc  recorded.value
1   c1ccc(NC2=NCCN2c2ccccc2)cc1  Sodium channel protein type 2 subunit alpha (Rattus norvegicus)          < 4.60
2  N=C1N(c2ccccc2)CCCN1c1ccccc1  Sodium channel protein type 2 subunit alpha (Rattus norvegicus)          < 4.60

Now look at this entry.
Query string: Look up pIC50 for this molecule: NC1=NCC(c2ccccc2)N1c1ccccc1 (stereo not drawn)
Result string: < 4.62
